# Measurement target: Lysophosphatidylserine lipase ABHD12 (Mus musculus)
# Method description: Inhibition of JJH350 binding to ABHD12 in mouse brain membrane proteome at 10 uM after 20 mins by CuAAC based fluorescence scanning assay relative to control
# Type: cell membranes
Readout label: inhibition (%)

{"Compound": "FC(F)(F)c1cnc(N2CCC(NC(=S)Nc3cccnc3)CC2)c(Cl)c1", "Measurement target": "Lysophosphatidylserine lipase ABHD12 (Mus musculus)", "Reading": 96}
{"Compound": "FC(F)(F)c1cnc(N2CCC(NC(=S)Nc3ccccc3)CC2)c(Cl)c1", "Measurement target": "Lysophosphatidylserine lipase ABHD12 (Mus musculus)", "Reading": 96}
{"Compound": "O=C(Nc1cccnc1)NC1CCN(c2ncc(C(F)(F)F)cc2Cl)CC1", "Measurement target": "Lysophosphatidylserine lipase ABHD12 (Mus musculus)", "Reading": 29}

(A) COc1ccc(NC(=S)NC2CCN(c3ncc(C(F)(F)F)cc3Cl)CC2)cn1
(B) FC(F)(F)c1cnc(N2C3CCC2CC(NC(=S)Nc2cccnc2)C3)c(Cl)c1 (stereo not given)
(C) FC(F)(F)c1cnc(N2CCC(NC(=S)Nc3cccnc3)C2)c(Cl)c1 (stereo not given)
(D) FC(F)(F)c1cnc(NCCCCCNC(=S)Nc2cccnc2)c(Cl)c1
(E) FC(F)(F)c1cnc(NCCCNC(=S)Nc2cccnc2)c(Cl)c1
Query: List these items ordered by inhibition, big to small. Please respond by ranking the labels in the order requested.
Response: D, B, C, A, E
